Biological target: Protein deacetylase HDAC6 (Homo sapiens)
Sequence (Q9UBN7 whole entry): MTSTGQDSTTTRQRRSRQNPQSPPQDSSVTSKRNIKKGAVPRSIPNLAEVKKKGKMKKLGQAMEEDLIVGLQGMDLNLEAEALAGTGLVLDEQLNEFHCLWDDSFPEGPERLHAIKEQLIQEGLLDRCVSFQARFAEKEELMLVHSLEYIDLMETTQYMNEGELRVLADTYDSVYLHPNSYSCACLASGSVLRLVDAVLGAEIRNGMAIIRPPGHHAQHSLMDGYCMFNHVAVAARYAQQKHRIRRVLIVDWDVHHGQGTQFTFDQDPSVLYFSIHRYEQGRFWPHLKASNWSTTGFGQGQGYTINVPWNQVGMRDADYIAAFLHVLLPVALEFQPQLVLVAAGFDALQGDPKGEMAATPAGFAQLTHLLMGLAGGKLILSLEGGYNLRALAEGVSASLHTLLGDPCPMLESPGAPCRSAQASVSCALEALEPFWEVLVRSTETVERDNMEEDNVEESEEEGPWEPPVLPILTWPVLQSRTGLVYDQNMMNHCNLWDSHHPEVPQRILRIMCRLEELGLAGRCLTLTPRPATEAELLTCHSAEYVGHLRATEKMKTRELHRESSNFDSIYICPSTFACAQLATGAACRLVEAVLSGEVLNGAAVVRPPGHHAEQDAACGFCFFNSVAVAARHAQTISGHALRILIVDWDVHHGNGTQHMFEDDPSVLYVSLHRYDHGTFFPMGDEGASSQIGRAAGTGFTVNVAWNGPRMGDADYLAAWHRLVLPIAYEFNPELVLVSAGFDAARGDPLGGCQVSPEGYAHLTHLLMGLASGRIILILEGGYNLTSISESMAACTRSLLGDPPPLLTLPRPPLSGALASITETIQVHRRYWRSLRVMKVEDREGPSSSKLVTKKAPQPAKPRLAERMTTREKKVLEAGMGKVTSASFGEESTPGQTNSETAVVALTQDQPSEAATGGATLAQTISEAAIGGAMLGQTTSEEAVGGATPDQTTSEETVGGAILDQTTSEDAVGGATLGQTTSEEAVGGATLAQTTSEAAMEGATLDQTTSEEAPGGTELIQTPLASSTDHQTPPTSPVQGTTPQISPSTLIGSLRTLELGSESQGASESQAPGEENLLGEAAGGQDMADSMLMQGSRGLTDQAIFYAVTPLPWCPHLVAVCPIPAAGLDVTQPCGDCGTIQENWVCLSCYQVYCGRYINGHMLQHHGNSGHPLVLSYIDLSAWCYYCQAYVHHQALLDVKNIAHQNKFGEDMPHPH
Test: Inhibition of human recombinant His-tagged HDAC6 expressed in baculovirus
pIC50: −log10 of the molar value.
pIC50 below 6 gives rule not met; pIC50 at or above it gives rule met.

Q) Check the entry NS(=O)(=O)NCCCC[C@H](NC(=O)OCc1ccccc1)c1n[nH]c(-c2ccccc2)n1 : does pIC50 equal or exceed 6?
A) rule met
